Values from patent US4315023A

System: Staphylococcus aureus
Assay: in vitro antibacterial activity (MIC), S. aureus
Assay type: cell-based
Conditions: Strain A, Nutrient Broth
Where a name gives a salt, the structure may show the parent alone.
measure: MIC (µg/mL)

{"compound": "Clc1ccc(C(Cn2ccnc2)SCSCc2c(Cl)cccc2Cl)c(Cl)c1 (stereo not shown) [Compound 3e, hydrochloride]", "unitString": "µg/mL", "qualifierOperator": "=", "valueMeasured": 0.25}
{"compound": "Cl.Clc1ccc(CSCSC(Cn2ccnc2)c2ccc(Cl)cc2Cl)cc1 (stereo not shown) [Compound 3b]", "unitString": "µg/mL", "qualifierOperator": ">", "valueMeasured": 63}
{"compound": "Clc1ccc(CSCSC(Cn2ccnc2)c2ccc(Cl)cc2Cl)c(Cl)c1.O=C(O)/C=C/C(=O)O (stereo not shown) [Compound 3d]", "unitString": "µg/mL", "qualifierOperator": "=", "valueMeasured": 0.25}
{"compound": "Clc1ccc(CSCSC(Cn2ccnc2)c2ccc(Cl)cc2Cl)cc1 (stereo not shown) [Compound 3a]", "unitString": "µg/mL", "qualifierOperator": "=", "valueMeasured": 0.5}
